assay: Hydroxyl radical scavenging activity by ESR spin-trapping method; format: functional
Collected IC50 values appear next to each entry.
Write the answer as a number in µM, unit excluded.

CC1=NN(c2ccccc2)C(=O)C1c1ccccc1 (stereo not drawn)	790
CC1=NN(c2ccc([N+](=O)[O-])cc2)C(=O)C1	500
CC1=NN(c2ccccc2)C(=O)C1 [EDARAVONE]	250

Form field: reported IC50 of `O=C(NC1=NN(c2ccccc2)C(=O)C1)Oc1ccccc1` 380

Tell me the measured IC50 of `CC1=NN(c2ccccn2)C(=O)C1` , please. 18

What value of IC50 has been reported for the following molecule? `O=C1CC(C(F)(F)F)=NN1c1ccccc1` 810

Can you look up the measured IC50 of CC1=NN(c2ccccc2)C(=O)C1C1CC1 (stereo not drawn) for me? 720

Can you share its IC50? I mean this molecule: CC1=NN(c2ccccc2)C(=O)C1C(=O)c1ccccc1 (stereo not drawn) 610
